Numbers sourced from patent US20110033543A1.

# system under test: the molecule itself
# assay details: circular dichroism, concentration dependence of MRE at 222 nm in PBS, fit for the Kd of the dimerization; isolated PF4ZIP, not conjugated to PEG
Ends that are not written are not given here.
observed property: Kd (µM)
Answers are plain numbers, in µM.

Query block: Which Kd reading was recorded for the protein CGGRMKQLEDKVKKLLKKNYHLENEVARLKKLVG-NH2 (also: coiled-coil dimer, also called coiled-coil PF4ZIP) [PF4ZIP] ?
Result block: 3.48
